targetEntity: Sentrin-specific protease 7 (Homo sapiens, UniProt Q9BQF6);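 note: Luminescence-based dose-response confirmation of ultra-high-throughput screening hits, measuring inhibition of SENP7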
Sequence (Q9BQF6 whole entry): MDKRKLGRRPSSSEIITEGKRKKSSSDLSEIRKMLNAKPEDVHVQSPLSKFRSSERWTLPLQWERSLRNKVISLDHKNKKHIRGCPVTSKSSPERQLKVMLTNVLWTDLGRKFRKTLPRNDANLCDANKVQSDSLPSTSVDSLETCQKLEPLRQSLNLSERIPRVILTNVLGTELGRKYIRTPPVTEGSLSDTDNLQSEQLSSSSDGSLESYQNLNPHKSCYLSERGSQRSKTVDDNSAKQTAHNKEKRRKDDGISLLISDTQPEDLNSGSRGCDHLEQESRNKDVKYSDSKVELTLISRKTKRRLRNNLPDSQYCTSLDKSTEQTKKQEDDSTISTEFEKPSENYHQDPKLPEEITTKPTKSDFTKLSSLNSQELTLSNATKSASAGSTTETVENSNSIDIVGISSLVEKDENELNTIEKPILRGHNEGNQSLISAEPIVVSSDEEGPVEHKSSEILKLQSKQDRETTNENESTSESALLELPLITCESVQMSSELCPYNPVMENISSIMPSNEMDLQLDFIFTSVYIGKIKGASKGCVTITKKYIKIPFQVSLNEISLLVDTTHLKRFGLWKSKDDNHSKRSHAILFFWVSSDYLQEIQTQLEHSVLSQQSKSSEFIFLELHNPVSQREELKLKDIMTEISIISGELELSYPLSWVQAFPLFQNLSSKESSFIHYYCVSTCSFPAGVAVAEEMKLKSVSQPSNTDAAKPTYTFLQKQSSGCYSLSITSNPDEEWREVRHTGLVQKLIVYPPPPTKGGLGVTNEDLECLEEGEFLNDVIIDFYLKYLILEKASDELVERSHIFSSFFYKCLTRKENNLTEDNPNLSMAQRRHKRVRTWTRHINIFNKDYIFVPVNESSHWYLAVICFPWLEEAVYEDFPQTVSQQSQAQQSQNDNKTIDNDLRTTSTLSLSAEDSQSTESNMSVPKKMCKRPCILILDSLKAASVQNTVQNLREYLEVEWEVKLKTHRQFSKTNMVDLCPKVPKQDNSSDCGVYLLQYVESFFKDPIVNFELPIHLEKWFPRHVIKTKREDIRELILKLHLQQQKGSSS
Format: functional
The source made the active and inactive calls.
Measured IC50 accompanies every entry in the list below.

// solved cases for IC50 follow
[
  {
    "sampleSmiles": "COc1cc(NC(=O)c2cccc(Br)c2)nc(OC)n1",
    "IC50": "8.86 µM (active)"
  },
  {
    "sampleSmiles": "Cc1ccc(/C=N/N=C/c2ccc(C)s2)s1",
    "IC50": "5.6 µM (active)"
  },
  {
    "sampleSmiles": "C/C(=N\\c1cccc(C)c1)c1sc2ccccc2c1O",
    "IC50": "4.75 µM (active)"
  },
  {
    "sampleSmiles": "CCOC(=O)/C=C/c1ccc2oc3ccccc3c(=O)c2c1",
    "IC50": "3.46 µM (active)"
  }
]

Look up and report measured IC50 for this entry: COc1ccc(/C=N/Nc2cc(N(C)C)nc(N(C)C)n2)cc1 54.5 µM (active)

Look up and report measured IC50 for this entry: O=C(CSc1ncnc2ccccc12)c1cccs1 4.7 µM (active)

Look up and report measured IC50 for this entry: Cc1ccc(-c2nc3sc4c(c3c(=O)n2N)CCCC4)cc1 5.25 µM (active)
